Tested on: MDA-N
test description: NCI tumour cell line growth inhibition, 48 h
The source made the active and inactive calls. No stated cut-off is given here; in the data, active = GI50 up to about 1.1 µM and inactive = higher.
Below, each entry is listed with its recorded GI50.

Answered cases to consult:
compound	target of assay	reported value
CC1=NN=C(N)NC1=CC(Sc1ccc(Cl)cc1)c1c(O)ccc2ccccc12 (stereo not given)	MDA-N	28.2 µM (inactive)
Cc1nn(C(=O)c2ccncc2)c2c1C(c1ccc([N+](=O)[O-])cc1)SC(=N)N2 (stereo not given)	MDA-N	> 100 µM (inactive)
COc1cc(/C=C2\N=C(c3ccccc3)N(c3ccc4c(c3)Sc3cc(N5C(=O)/C(=C/c6cc(OC)c(OC)c(OC)c6)N=C5c5ccccc5)ccc3N4)C2=O)cc(OC)c1OC	MDA-N	19.8 µM (inactive)
O=[N+]([O-])c1cccc(/N=N/c2c(O)ccc3ccccc23)c1	MDA-N	87.3 µM (inactive)
Cc1cc(=O)oc2c(CN3CCCCC3)c(O)ccc12	MDA-N	> 100 µM (inactive)

Continue with the compound presented below.
Sample C=C1C(C)C2C(Cc3ccccc3)NC(=O)C23C(OC(C)=O)C=CC(C)(O)C(=O)C(C)C/C=C/C3C1O (stereo not given) ; GI50 observed: 15.6 µM (inactive)

---

System: M19-MEL
test description: NCI tumour cell line growth inhibition, 48 h
Active and inactive are the calls of the source. No stated cut-off is given here; in the data, active = GI50 up to about 1.1 µM and inactive = higher.
// one of Yes = active, No = inactive, no free text

Previously resolved entries follow.
compound	assigned label
CCSC(SCC)=C1C(=O)N(c2ccccc2)N=C1C	Yes
CC1=C(C)C(=O)C2=C(OCCCO2)C1=O	No
COc1ccc(N2C(=O)[C@H]3CC(C)c4c([nH]c5ccccc45)[C@H]3C2=O)cc1 (stereo partly drawn)	No

IN: Name the outcome recorded for COc1ccc(-c2cc(-c3cc(C)ccc3O)nc(O)n2)cc1 in the assay.
OUT: No

IN: Name the outcome recorded for C=C1CC2(OC1=O)c1ccccc1CCc1ccccc12 in the assay.
OUT: No

IN: Name the outcome recorded for O=[N+]([O-])c1ccc(OCCNc2cccc3ccccc23)cc1 in the assay.
OUT: No

IN: Name the outcome recorded for COC(=O)Cc1c([C@@]2(C)CCCC(C)(C)C2)ccc2c1C(=O)OC2 in the assay.
OUT: No

IN: Name the outcome recorded for COC(=O)c1cccc(N[C@@H]2c3cc4c(cc3C(c3cc(OC)c(O)c(OC)c3)[C@H]3C(=O)OCC32)OCO4)c1 (stereo partly drawn) in the assay.
OUT: No

---

Below, each entry is listed with its recorded GI50.
Test system: BT-549
test description: NCI tumour cell line growth inhibition, 48 h
Active and inactive are the calls of the source. Cut-off read from the data, not from the text of the source: active = GI50 up to about 1.1 µM and inactive = higher.

Answered cases to consult:
compound	target of assay	GI50
NC(CCCCNC(=O)OCc1ccccc1)C(=O)NC(CCCCNC(=O)OCc1ccccc1)C(=O)ON1C(=O)CCC1=O (stereo not drawn)	BT-549	> 100 µM (inactive)
Cc1cnc(Cl)nc1C(C#N)c1nc2ccccc2s1 (stereo not drawn)	BT-549	12.4 µM (inactive)

Continue with the compound presented below.
Note to self: GI50 of CCOC(=O)NC1=C(N2CC2)C(=O)C(NC(=O)OCC)=C(N2CC2)C1=O [DIAZIQUONE] with BT-549 was 11.4 µM (inactive)

---

System: SK-MEL-2
test description: NCI tumour cell line growth inhibition, 48 h
Calls of active or inactive are those of the source. Cut-off read from the data, not from the text of the source: active = GI50 up to about 1.1 µM and inactive = higher.
experimental endpoint: GI50

compound	GI50
NC(C/C=C/P(=O)(O)O)C(=O)O (stereo unspecified)	> 100 µM (inactive)
O=C(O)CN1CCN(CC(=O)N2CCN(C(=O)OCc3ccccc3)CC2)CCN(CC(=O)O)CCN(CC(=O)N2CCN(C(=O)OCc3ccccc3)CC2)CC1	> 100 µM (inactive)

Sample CCOP1(=O)C=CC(Cl)=C(C)C1 (stereo unspecified) ; GI50 observed: 12.9 µM (inactive)

Sample CCSC(SCC)=C1C(=O)N(c2ccccc2)N=C1C ; GI50 observed: 15.8 µM (inactive)
